- TGT: HLA-A*33:03
- METHOD_SUMMARY: IEDB peptide-MHC binding, purified MHC/competitive/fluorescence; filed as Kd, often an IC50 or EC50 that approximates it; bounds were set here for any values at or beyond the usual limits of such assays
- EXPERIMENTAL_CONDITIONS: source organism: Homo sapiens
# Kd per entry
Report as: number unit

sequence_code=EVASVWVER tgt=HLA-A*33:03 recorded_value="11.5 nM"

Query `VVAAVRWRR` yields Kd of 3.64 nM

// `ELFDFLHAR` : Kd value = 1.68 nM

Entry `ETVERIFRR` — recorded Kd = 1.77 nM

Measured Kd of `NTLQLHRYR` : 3.4 nM

# Kd of `ETHFPFAIR` = 2.11 nM

// sample `YVQRFHYSR` , its Kd was 1.37 nM

GET /value?item= `EVINDYHFR` &field=Kd returns 5.33 nM

The sequence `ETYLHRIGR` showed Kd equal to 1.69 nM

Entry `EVFEYIIFR` ; Kd = 4.69 nM

get_value(item= `NTNDFVTLR` , readout=Kd) returns 4.87 nM

Kd measured on `ETFPQRHMR` = 3.14 nM
